# target.of.assay: Metabotropic glutamate receptor 4 (Homo sapiens, UniProt Q14833)
# Sequence (Q14833 whole entry): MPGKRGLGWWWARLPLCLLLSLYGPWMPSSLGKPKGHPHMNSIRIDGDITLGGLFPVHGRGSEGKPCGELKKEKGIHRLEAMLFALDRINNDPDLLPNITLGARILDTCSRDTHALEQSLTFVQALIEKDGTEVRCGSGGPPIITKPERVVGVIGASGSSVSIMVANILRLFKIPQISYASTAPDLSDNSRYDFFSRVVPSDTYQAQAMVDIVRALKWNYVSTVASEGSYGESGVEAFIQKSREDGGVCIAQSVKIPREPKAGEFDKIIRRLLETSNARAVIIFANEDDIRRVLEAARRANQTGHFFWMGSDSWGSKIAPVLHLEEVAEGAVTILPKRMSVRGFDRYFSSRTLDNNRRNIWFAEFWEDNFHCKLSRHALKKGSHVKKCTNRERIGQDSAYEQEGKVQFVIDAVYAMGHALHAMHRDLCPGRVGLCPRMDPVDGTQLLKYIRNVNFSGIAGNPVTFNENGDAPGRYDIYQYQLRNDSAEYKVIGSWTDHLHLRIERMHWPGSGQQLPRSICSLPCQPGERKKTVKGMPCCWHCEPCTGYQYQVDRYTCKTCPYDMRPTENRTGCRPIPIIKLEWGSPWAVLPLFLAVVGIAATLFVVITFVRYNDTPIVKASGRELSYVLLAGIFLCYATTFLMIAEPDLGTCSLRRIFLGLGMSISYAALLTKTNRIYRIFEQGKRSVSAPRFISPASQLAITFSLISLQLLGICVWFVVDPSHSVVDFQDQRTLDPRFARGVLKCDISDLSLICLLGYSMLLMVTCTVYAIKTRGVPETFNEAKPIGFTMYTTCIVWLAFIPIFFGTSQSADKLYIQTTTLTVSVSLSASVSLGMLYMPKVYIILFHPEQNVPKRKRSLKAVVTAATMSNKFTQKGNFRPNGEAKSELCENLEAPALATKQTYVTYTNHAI
# protocol.details: Positive allosteric modulation of human mGlu4 receptor assessed as potentiation of glutamate-induced calcium mobiliztion by cell based assay
# Format: functional
# condition.details: read-out: EC50
experimental.readout: EC50

Task: Would you kindly share the measured EC50 for Cc1ccoc1C(=O)Nc1ccc(N2C(=O)c3cccc(F)c3C2=O)c(Cl)c1 ?
Result: 1110 nM

Task: Would you kindly share the measured EC50 for Cc1ccoc1C(=O)Nc1ccc(N2C(=O)c3cccc(Cl)c3C2=O)c(Cl)c1 ?
Result: 1140 nM

Task: Would you kindly share the measured EC50 for Cc1ccoc1C(=O)Nc1ccc(N2C(=O)c3ccc(F)cc3C2=O)c(Cl)c1 ?
Result: 712 nM
